- Tested on: E. coli 25922
- Assay Name: Intrinsic MIC assay (CLSI broth microdilution)
- Type: cell-based, Escherichia coli
- Particulars: Escherichia coli, 18 h; E. coli 25922; without EPI; MIC90; read-out: Antibiotic Activity Against E. coli: Intrinsic MIC
Where a name gives a salt, the structure may show the parent alone.
Metric: MIC

N=C(N)SCc1cccc(-c2ccc(F)cc2)c1 [Example 10, Hydrobromide]; 64 µg/mL

// each listed molecule needs a value for MIC
1. N=C(N)SCc1ccc2ncccc2c1 [Example 18, Hydrobromide]
2. Br.N=C(N)SCc1ccc(-c2ccc(F)cc2)cc1 [Example 9]
3. Cl.N=C(N)SCc1ccc2ccccc2c1 [Example 12]
4. Br.CC(C)(C)c1ccc(CSC(=N)N)cc1 [Example 3]
5. CC(C)(C)OC(=O)n1ccc2cc(CSC(=N)N)ccc21 [Example 17]
6. Br.CC(SC(=N)N)c1ccc(Cl)c(Cl)c1 (stereo not shown) [Example 5]

> 256 µg/mL
64 µg/mL
> 256 µg/mL
256 µg/mL
> 128 µg/mL
256 µg/mL
